Tested on: adipose tissues from male Zucker fatty (fa/fa) rats
assayInfo: In vitro inhibition of lipogenesis in isolated adipose tissue
Assay type: cell-based, rat
testSettings: peptide 0.3 μM, insulin 0.1 mU/ml, KRB buffer
Bridges are numbered along the chain shown (N, C = ends). Where no end group is shown, it is not given here.
measurementName: In vitro lipogenesis, rate of [C14]-glucose incorporation into [C14]-lipid

>  <substance>
9615 (LRIVQCRSVEASCGF; disulfide 6-13; listed as Homo sapiens) [Compound 9615]

>  <result>
183 ± 17 nmol/g tissue/hr

$$$$
>  <substance>
9613 (LRIVQCRSAEGSCGF; disulfide 6-13; listed as Homo sapiens) [Compound 9613]

>  <result>
189 ± 16 nmol/g tissue/hr

$$$$
>  <substance>
9601 (LRIVQCRSVEGSCGA; disulfide 6-13; listed as Homo sapiens) [Compound 9601]

>  <result>
185 ± 24 nmol/g tissue/hr

$$$$
>  <substance>
9603 (LAIVQCRSVEGSCGF; listed as Homo sapiens) [Compound 9603]

>  <result>
225 ± 18 nmol/g tissue/hr

$$$$
>  <substance>
9618 (KKLRIVQCRSVEGSCGF; disulfide 8-15; listed as Homo sapiens) [Compound 9618]

>  <result>
188 ± 19 nmol/g tissue/hr

$$$$
>  <substance>
9410 (H-LRIVQCRSVEGSCGF; disulfide 6-13; also: desamino N-terminus; listed as Homo sapiens) [Compound 9410]

>  <result>
143 ± 20 nmol/g tissue/hr

$$$$
>  <substance>
9610 (LRIVACRSVEGSCGF; disulfide 6-13; listed as Homo sapiens) [Compound 9610]

>  <result>
192 ± 14 nmol/g tissue/hr

$$$$
>  <substance>
9612 (LRIVQCRAVEGSCGF; disulfide 6-13; listed as Homo sapiens) [Compound 9612]

>  <result>
191 ± 20 nmol/g tissue/hr

$$$$
>  <substance>
9407 (LRIVQCKSVEGSCGF; disulfide 6-13; listed as Homo sapiens) [Compound 9407]

>  <result>
174 ± 16 nmol/g tissue/hr

$$$$
>  <substance>
9606 (LKIVQCRSVEGSCGF; disulfide 6-13; listed as Homo sapiens) [Compound 9606]

>  <result>
187 ± 19 nmol/g tissue/hr

$$$$
>  <substance>
9405 (Ac-LRIVQCRSVEGSCGF; disulfide 6-13; listed as Homo sapiens) [Compound 9405]

>  <result>
164 ± 17 nmol/g tissue/hr

$$$$
>  <substance>
9616 (LRIVQCRSVEGACGF; disulfide 6-13; listed as Homo sapiens) [Compound 9616]

>  <result>
203 ± 19 nmol/g tissue/hr

$$$$
>  <substance>
9406 (LRIVQCASVEGSCGF; listed as Homo sapiens) [Compound 9406]

>  <result>
236 ± 17 nmol/g tissue/hr

$$$$
